// data source = ChEMBL document CHEMBL2034901

# system.name: Hydroxycarboxylic acid receptor 2 (Homo sapiens)
# assay.details: Positive allosteric activity at GPR109A in human HEK cells assessed as shift in EC50 of nicotinic acid at 3 uM pretreated for 30 mins measured after 90 mins by [35S]-GTPgammaS binding assay
# Assay type: functional, cell-based
# condition.details: HEK293
attribute.measured: Emax
Write your answer as a measured quantity: the number, then the unit.

Worked cases, answers included:
| smiles.structure | attribute.measured | reading |
| --- | --- | --- |
| Cc1c(C(=O)NCCNc2ccccc2)cnc2c(-c3ccc(C(C)C)cc3)cnn12 | Emax | 129% |
| Cc1c(C(=O)NCCOc2ccccc2)cnc2c(-c3ccc(OC(C)C)cc3)cnn12 | Emax | 123% |
| CCc1c(C(=O)NCCOc2ccccc2)cnc2c(-c3ccc(C(C)C)cc3)cnn12 | Emax | 129% |

Moving on to the next compound.
Hello, I am looking for reported Emax with Hydroxycarboxylic acid receptor 2 (Homo sapiens) for Cc1c(C(=O)NCCOc2ccccc2)cnc2c(-c3ccc(Cl)c(Cl)c3)cnn12 . Could you help?
114%
